B1: library; a variant is named by its letters at N, in order (parent)
chain: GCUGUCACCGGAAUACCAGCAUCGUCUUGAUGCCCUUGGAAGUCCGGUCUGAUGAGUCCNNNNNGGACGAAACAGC

variants of: B1; test: normalized RNA/DNA level with ligand (relative to sTRSVctl = 100) (log10 (% of sTRSVctl)); higher = less ribozyme self-cleavage, higher mRNA level; conditions: ligand concentration (+) RNA-Seq: 5 mM, HEK293T, reporter: mCherry (pCS4076), ligand present: yes
Returns one of true or false; true when normalized RNA/DNA level with ligand (log10) is >= 2.

1) GCUGUCACCGGAAUACCAGCAUCGUCUUGAUGCCCUUGGAAGUCCGGUCUGAUGAGUCCAUUAAGGACGAAACAGC [AUUAA] :: false
2) GCUGUCACCGGAAUACCAGCAUCGUCUUGAUGCCCUUGGAAGUCCGGUCUGAUGAGUCCUAUUGGGACGAAACAGC [UAUUG] :: true
3) GCUGUCACCGGAAUACCAGCAUCGUCUUGAUGCCCUUGGAAGUCCGGUCUGAUGAGUCCUACCAGGACGAAACAGC [UACCA] :: false
4) GCUGUCACCGGAAUACCAGCAUCGUCUUGAUGCCCUUGGAAGUCCGGUCUGAUGAGUCCACGAUGGACGAAACAGC [ACGAU] :: true
5) GCUGUCACCGGAAUACCAGCAUCGUCUUGAUGCCCUUGGAAGUCCGGUCUGAUGAGUCCACCUAGGACGAAACAGC [ACCUA] :: false
6) GCUGUCACCGGAAUACCAGCAUCGUCUUGAUGCCCUUGGAAGUCCGGUCUGAUGAGUCCCCGCAGGACGAAACAGC [CCGCA] :: true

normalized RNA/DNA level with ligand (log10) >= 2 for GCUGUCACCGGAAUACCAGCAUCGUCUUGAUGCCCUUGGAAGUCCGGUCUGAUGAGUCCGUAGAGGACGAAACAGC [GUAGA] ? false

normalized RNA/DNA level with ligand (log10) >= 2 for GCUGUCACCGGAAUACCAGCAUCGUCUUGAUGCCCUUGGAAGUCCGGUCUGAUGAGUCCAGGAGGGACGAAACAGC [AGGAG] ? false

normalized RNA/DNA level with ligand (log10) >= 2 for GCUGUCACCGGAAUACCAGCAUCGUCUUGAUGCCCUUGGAAGUCCGGUCUGAUGAGUCCUUAUGGGACGAAACAGC [UUAUG] ? true

Each recorded value in this set is attributed to the supplement of paper PMC6757056.
